The measured values listed here are drawn from ChEMBL document CHEMBL1154688.

- test.protocol: Metabolic stability in Beagle dog liver microsomes assessed as half life
- Assay type: ADME, Canis lupus familiaris, Microsome
readout.name: half-life (min)
Give your result in min as a bare value.

Prompt: Fill in half-life for record COc1ccc(CCN2C(=O)N(NS(C)(=O)=O)C[C@H]2c2ccc(OC)cc2)cc1
Completion: 11

====

- test.protocol: Half life in Beagle dog at 3 mg/kg, po
- Assay type: ADME, organism-based, Canis lupus familiaris
- Design: dose 3 mg/kg, route oral
- setup.conditions: in vivo
readout.name: half-life (h)
Give your result in h as a bare value.

Prompt: Fill in half-life for record COc1ccc(CCN2C(=O)N(NS(C)(=O)=O)C[C@H]2c2ccc(OC)cc2)cc1
Completion: 1.7
